# pIC50 listing for each entry below
TARGET_DESC: Recombinant full length human OGA enzyme (Homo sapiens (Human))
Sequence (O60502 whole entry): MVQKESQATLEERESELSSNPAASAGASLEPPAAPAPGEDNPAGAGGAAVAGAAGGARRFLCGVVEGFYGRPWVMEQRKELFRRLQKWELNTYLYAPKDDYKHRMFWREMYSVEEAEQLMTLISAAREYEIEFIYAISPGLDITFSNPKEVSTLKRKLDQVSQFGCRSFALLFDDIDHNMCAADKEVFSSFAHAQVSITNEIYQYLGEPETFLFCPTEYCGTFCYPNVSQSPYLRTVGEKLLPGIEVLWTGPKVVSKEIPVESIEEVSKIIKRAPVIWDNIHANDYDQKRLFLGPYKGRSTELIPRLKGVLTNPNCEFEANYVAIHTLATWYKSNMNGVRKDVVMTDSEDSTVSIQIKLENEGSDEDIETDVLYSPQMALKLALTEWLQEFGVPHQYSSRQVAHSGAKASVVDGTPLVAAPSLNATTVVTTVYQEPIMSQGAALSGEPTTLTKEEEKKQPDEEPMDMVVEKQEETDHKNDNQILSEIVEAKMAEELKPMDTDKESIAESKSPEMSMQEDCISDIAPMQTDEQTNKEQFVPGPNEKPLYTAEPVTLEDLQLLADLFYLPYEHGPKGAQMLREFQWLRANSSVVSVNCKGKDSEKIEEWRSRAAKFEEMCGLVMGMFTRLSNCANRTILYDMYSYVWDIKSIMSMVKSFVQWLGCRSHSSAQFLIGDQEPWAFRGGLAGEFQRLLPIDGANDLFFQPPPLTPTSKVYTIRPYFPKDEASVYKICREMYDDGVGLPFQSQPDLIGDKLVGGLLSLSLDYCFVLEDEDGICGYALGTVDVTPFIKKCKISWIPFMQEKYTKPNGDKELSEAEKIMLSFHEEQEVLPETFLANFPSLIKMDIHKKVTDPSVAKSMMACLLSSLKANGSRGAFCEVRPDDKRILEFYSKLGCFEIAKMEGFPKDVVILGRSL
ASSAY_PROTOCOL: OGA Enzyme Inhibition Biochemical Assay
CONDITIONS_USED: 1 nM OGA, 100 μM 4-MUGlcNAc, 90 minutes, pH 6.4
pIC50: −log10 of the molar value.

>  <COMPOUND>
CC(=O)Nc1nc(F)c(CN2C[C@@]3(Cc4cc(N5CCOCC5)ncc4O3)C[C@@H]2C)s1 [Example 36]

>  <QUALIFIER>
>

>  <pIC50>
9.00

$$$$
>  <COMPOUND>
COc1nccc2c1COC21CCCN(Cc2sc(NC(C)=O)nc2F)C1 (centres unmarked) [Example 81]

>  <QUALIFIER>
=

>  <pIC50>
8.96

$$$$
>  <COMPOUND>
COc1cc2c(cn1)[C@]1(C[C@H](C)N(Cc3cnc(NC(C)=O)s3)C1)OC2 (single isomer, unassigned) [Example 76-a]

>  <QUALIFIER>
=

>  <pIC50>
7.26

$$$$
>  <COMPOUND>
CC(=O)Nc1nc(F)c(CN2C[C@@]3(C[C@@H]2C)OCc2cnccc23)s1 (single isomer, unassigned) [Example 64-a]

>  <QUALIFIER>
=

>  <pIC50>
8.00

$$$$
>  <COMPOUND>
CC(=O)Nc1ncc(CN2CCC3(Cc4cccnc4O3)C2)s1 (centres unmarked) [Example 14]

>  <QUALIFIER>
=

>  <pIC50>
5.42

$$$$
>  <COMPOUND>
CC(=O)Nc1nc(F)c(CN2C[C@@]3(Cc4cc(=O)n(C)cc4O3)C[C@@H]2C)s1 [Example 48]

>  <QUALIFIER>
=

>  <pIC50>
8.85

$$$$
>  <COMPOUND>
CC(=O)Nc1ncc(CN2C[C@@]3(Cc4cc(C(F)F)ncc4O3)C[C@@H]2C)s1 [Example 27]

>  <QUALIFIER>
=

>  <pIC50>
7.96

$$$$
>  <COMPOUND>
CC(=O)Nc1nc(F)c(CN2CCC3(Cc4cnc(Cl)cc4O3)C2)s1 (centres unmarked) [Example 7]

>  <QUALIFIER>
=

>  <pIC50>
7.27

$$$$

* * *

ASSAY_PROTOCOL: Rat Liver Microsome Stability Assay
CONDITIONS_USED: rat liver microsomes 0.5 mg/mL, compound 1 μM; Qh 55 mL/minute/kg
# RLM % Qh (%) listing for each entry below

>  <COMPOUND>
COCCN(C)c1cc2c(cn1)O[C@]1(C2)C[C@H](C)N(Cc2sc(NC(C)=O)nc2F)C1

>  <RLM % Qh (%)>
82

$$$$
>  <COMPOUND>
CC(=O)Nc1nc(F)c(CN2C[C@@]3(Cc4cc(=O)[nH]cc4O3)C[C@@H]2C)s1

>  <RLM % Qh (%)>
16

$$$$
>  <COMPOUND>
CC(=O)Nc1nc(F)c(CN2C[C@@]3(Cc4cc(N5CCN(C)CC5)ncc4O3)C[C@@H]2C)s1

>  <RLM % Qh (%)>
65

$$$$
>  <COMPOUND>
CC(=O)Nc1nc(F)c(CN2C[C@@]3(Cc4cc(C5CC5)ncc4O3)C[C@@H]2C)s1

>  <RLM % Qh (%)>
75

$$$$
>  <COMPOUND>
COc1nccc2c1COC21CCCN(Cc2sc(NC(C)=O)nc2F)C1 (stereo not shown)

>  <RLM % Qh (%)>
78

$$$$
>  <COMPOUND>
COc1cc2c(cn1)[C@@]1(C[C@H](C)N(Cc3sc(NC(C)=O)nc3F)C1)OC2 (single isomer, unassigned)

>  <RLM % Qh (%)>
89

$$$$
>  <COMPOUND>
CC(=O)Nc1nc(F)c(CN2C[C@@]3(Cc4cc(N5C[C@@H](C)O[C@H](C)C5)ncc4O3)C[C@@H]2C)s1

>  <RLM % Qh (%)>
65

$$$$
